- assay.remarks: self-splicing fitness, log relative to wild type (ln ratio); higher = more splicing; Tetrahymena group I intron in knt gene, E. coli kanamycin selection, DiMSum; sequences stand for … in CUCUCU…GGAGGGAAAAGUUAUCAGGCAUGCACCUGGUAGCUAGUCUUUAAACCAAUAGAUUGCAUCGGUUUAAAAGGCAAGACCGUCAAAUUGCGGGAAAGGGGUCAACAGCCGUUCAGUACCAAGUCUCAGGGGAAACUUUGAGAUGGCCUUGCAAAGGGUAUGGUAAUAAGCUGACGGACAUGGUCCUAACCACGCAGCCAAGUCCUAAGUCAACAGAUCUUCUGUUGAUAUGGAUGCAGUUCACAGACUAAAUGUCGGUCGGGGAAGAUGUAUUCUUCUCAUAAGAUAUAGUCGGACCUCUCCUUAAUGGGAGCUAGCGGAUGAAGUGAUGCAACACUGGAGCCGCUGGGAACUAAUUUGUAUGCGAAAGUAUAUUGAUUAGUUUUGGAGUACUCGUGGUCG;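 note: selection with 25 µg/mL kanamycin versus none on LB agar overnight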
- experimental.context: 37 °C
Give Met when the value for self-splicing fitness (ln) is at least -2. Give Not met when it is less.

query: Hi team, for CUUCAGCAAUAUUACGUACU , is the recorded self-splicing fitness (ln) at or above -2?
result: Not met

query: Hi team, for CCCUAGCAAUAUUACGUAUA , is the recorded self-splicing fitness (ln) at or above -2?
result: Not met

query: Hi team, for CAAUAGCAAUAUUACGUCUG , is the recorded self-splicing fitness (ln) at or above -2?
result: Met

query: Hi team, for GUUGAGCAAUAUUACGUUUU , is the recorded self-splicing fitness (ln) at or above -2?
result: Not met

query: Hi team, for UGCGAGCAAUAUUACGCAAU , is the recorded self-splicing fitness (ln) at or above -2?
result: Not met

----------
- assay.remarks: self-splicing fitness, log relative to wild type (ln ratio); higher = more splicing; Tetrahymena group I intron in knt gene, E. coli kanamycin selection, DiMSum; sequences stand for … in CUCUCU…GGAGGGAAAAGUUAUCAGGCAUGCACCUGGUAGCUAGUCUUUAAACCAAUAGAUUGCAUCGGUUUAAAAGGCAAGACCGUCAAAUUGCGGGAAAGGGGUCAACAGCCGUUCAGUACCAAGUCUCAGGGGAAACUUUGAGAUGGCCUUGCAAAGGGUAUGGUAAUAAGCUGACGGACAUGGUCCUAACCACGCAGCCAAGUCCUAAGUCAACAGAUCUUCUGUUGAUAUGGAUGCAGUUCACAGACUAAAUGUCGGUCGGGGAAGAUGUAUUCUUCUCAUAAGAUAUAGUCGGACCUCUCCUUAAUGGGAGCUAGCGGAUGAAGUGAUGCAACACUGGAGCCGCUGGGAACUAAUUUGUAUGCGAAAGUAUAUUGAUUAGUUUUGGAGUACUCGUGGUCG
- experimental.context: 30 °C
Give measured self-splicing fitness (ln) for each item. Keep answers brief.
One number for each entry.

Give me self-splicing fitness (ln) for each of these sequences, listed below.
1. GCUUAGCAAUAUUACGACCU
2. UUACAGCAAUAUUACGAGCG
3. CGCUAGCAAUAUUACGUAUC
4. GCAUAGCAAUAUUACGCGAA
5. GGGAAGCAAUAUUACGCAGC

result:
[-0.423, -0.688, -3.84, -2.13, -1.29]

Give me self-splicing fitness (ln) for each of these sequences, listed below.
1. GCGCAGCAAUAUUACGGUCU
2. ACUUAGCAAUAUUACGUAAU
3. CUAUAGCAAUAUUACGAAGA

result:
-0.494
-2.39
-3.01

----------
- assay.remarks: self-splicing fitness, log relative to wild type (ln ratio); higher = more splicing; Tetrahymena group I intron in knt gene, E. coli kanamycin selection, DiMSum; sequences stand for … in CUCUCU…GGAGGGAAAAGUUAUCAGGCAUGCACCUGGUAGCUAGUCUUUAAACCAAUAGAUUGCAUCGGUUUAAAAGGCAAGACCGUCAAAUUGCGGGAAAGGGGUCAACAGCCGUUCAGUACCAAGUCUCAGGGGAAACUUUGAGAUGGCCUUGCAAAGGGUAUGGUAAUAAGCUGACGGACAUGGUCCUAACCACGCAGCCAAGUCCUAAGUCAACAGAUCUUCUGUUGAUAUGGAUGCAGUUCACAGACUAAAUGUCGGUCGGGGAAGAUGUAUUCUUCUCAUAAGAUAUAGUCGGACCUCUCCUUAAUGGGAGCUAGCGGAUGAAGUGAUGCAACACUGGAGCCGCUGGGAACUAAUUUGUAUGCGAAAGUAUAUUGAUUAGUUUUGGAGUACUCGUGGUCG
- experimental.context: 30 °C
Give measured self-splicing fitness (ln) for each item. Keep answers brief.
Answers are plain numbers.

Examples from the recorded data:
1) AGUCAGCAAUAUUACGAUGC: -1.04
2) AUCGAGCAAUAUUACGUCGU: -2.19
3) CAGUAGCAAUAUUACGGGGG: -3.48
4) CCCAAGCAAUAUUACGCCGA: -2.01

Give me self-splicing fitness (ln) for each of these sequences, listed below.
1. CUACAGCAAUAUUACGCGCA
2. UAUGAGCAAUAUUACGCGAA
3. ACGGAGCAAUAUUACGUAGG
4. CGCAAGCAAUAUUACGAGGA
5. UCGCAGCAAUAUUACGCCUG
6. AACCAGCAAUAUUACGCAGC

result:
1. -3.72
2. -1.62
3. -3.48
4. -3.23
5. -3.14
6. -2.4

----------
- assay.remarks: self-splicing fitness, log relative to wild type (ln ratio); higher = more splicing; Tetrahymena group I intron in knt gene, E. coli kanamycin selection, DiMSum; sequences stand for … in CUCUCU…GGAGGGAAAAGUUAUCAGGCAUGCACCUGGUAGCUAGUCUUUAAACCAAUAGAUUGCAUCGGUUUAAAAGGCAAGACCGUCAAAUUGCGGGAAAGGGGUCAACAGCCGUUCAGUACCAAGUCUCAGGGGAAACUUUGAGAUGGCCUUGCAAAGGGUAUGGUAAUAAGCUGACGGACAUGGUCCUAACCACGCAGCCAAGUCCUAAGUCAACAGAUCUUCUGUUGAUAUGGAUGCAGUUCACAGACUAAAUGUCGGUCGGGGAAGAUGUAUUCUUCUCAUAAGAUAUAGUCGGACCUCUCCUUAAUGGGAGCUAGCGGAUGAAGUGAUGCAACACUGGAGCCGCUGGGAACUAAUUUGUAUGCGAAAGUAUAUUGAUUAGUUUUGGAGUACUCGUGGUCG
- experimental.context: 37 °C
Give measured self-splicing fitness (ln) for each item. Keep answers brief.
Give bare numbers.

Examples from the recorded data:
1) UCAAAGCAAUAUUACGCCGC: -1.67
2) CAUGAGCAAUAUUACGACAG: -1.02
3) CGGCAGCAAUAUUACGUCGA: -1.07
4) AUUUAGCAAUAUUACGUGAU: -0.863
5) ACUCAGCAAUAUUACGGUUG: -2.77

Give me self-splicing fitness (ln) for each of these sequences, listed below.
1. CUAUAGCAAUAUUACGUCUU
2. ACAGAGCAAUAUUACGUGUG
3. GUAAAGCAAUAUUACGUACU
4. CAACAGCAAUAUUACGCCAU
5. GUUAAGCAAUAUUACGAAUA
6. CAGAAGCAAUAUUACGACAC

result:
[-2.76, -2.99, -0.965, -2.94, -0.46, -2.1]

----------
- assay.remarks: self-splicing fitness, log relative to wild type (ln ratio); higher = more splicing; Tetrahymena group I intron in knt gene, E. coli kanamycin selection, DiMSum; sequences stand for … in CUCUCU…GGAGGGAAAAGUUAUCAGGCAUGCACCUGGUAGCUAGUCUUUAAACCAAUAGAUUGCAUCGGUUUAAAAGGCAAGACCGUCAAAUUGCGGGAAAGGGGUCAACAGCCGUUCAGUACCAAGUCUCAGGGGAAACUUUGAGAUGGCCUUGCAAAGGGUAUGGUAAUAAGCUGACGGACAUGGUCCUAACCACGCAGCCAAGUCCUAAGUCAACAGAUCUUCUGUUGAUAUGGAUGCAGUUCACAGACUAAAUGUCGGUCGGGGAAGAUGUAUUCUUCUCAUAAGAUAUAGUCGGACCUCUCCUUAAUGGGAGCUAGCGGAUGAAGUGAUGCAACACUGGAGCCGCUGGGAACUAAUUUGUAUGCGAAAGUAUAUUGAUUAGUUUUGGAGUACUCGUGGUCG
- experimental.context: 30 °C
Give measured self-splicing fitness (ln) for each item. Keep answers brief.

Examples from the recorded data:
1) UGACAGCAAUAUUACGCCAU: -3.25
2) AUGCAGCAAUAUUACGAUCU: -0.511
3) GCGAAGCAAUAUUACGUCUC: -2.04
4) UGUUAGCAAUAUUACGGUCU: -1.33
5) GAGGAGCAAUAUUACGCUGA: -2.84
6) CUAGAGCAAUAUUACGAUGA: -1.86

Give me self-splicing fitness (ln) for each of these sequences, listed below.
1. CGGGAGCAAUAUUACGGCGU
2. AAGGAGCAAUAUUACGUCGU
3. UGAUAGCAAUAUUACGGCCC
4. AUGUAGCAAUAUUACGCACU
5. GCCGAGCAAUAUUACGCACA

result:
1. -3.6
2. -2.73
3. -2.82
4. -0.786
5. -1.22

Give me self-splicing fitness (ln) for each of these sequences, listed below.
1. AUGGAGCAAUAUUACGGUUG
2. GAUAAGCAAUAUUACGUUUU
3. UACUAGCAAUAUUACGGAGA
4. UGAAAGCAAUAUUACGUGAC
5. CCCCAGCAAUAUUACGCCUU

result:
[-4.12, -2.39, -2.59, -3.86, -3]

Attribution: the supplement of paper PMC7877785
